# Tested on: HOP-92 NSCLC
# PROCEDURE TEXT: NCI tumour cell line growth inhibition, 48 h; in the data active = GI50 below about 0.43 µM; inactive = the rest
Thanks in advance; please answer with one of these: class 1 = active, class 0 = inactive

O=C1NC(=NCCCc2ccccc2)S/C1=C\c1ccc2ncccc2c1 ... class 0

What is the recorded call for this compound in the test? "CN(CC(=O)N(Cc1ccc(C2CCCCC2)cc1)c1ccc(C(=O)O)cc1)S(=O)(=O)c1c(F)c(F)c(F)c(F)c1F"
class 0

Try the compound "CCCCCCCCCCCC[n+]1ccc2ccccc2c1"
class 1

###

# System: PC-3 prostate
# PROCEDURE TEXT: NCI tumour cell line growth inhibition, 48 h
Recorded TGI, one value per entry.
# output: bare number, implied unit µM

Notebook: pull reported TGI for PC-3 prostate, entry "COc1cc2cc(Oc3ccc(NC(=O)Nc4ccc(Cl)c(Cl)c4)cc3)c(C)nc2cc1OC"
5.13

Another: "C[C@H]1S[C@H](c2c(Cl)cccc2Cl)N2Cc3ccccc3N=C12"
37.7

How about c1ccc2c3c([nH]c2c1)C(c1ccc(C2NCCc4c2[nH]c2ccccc42)cc1)NCC3 (stereo unspecified) ?
2.69

###

# Test system: HL-60(TB) leukemia
# PROCEDURE TEXT: NCI tumour cell line growth inhibition, 48 h
Below, each of the compounds is paired with its reported TGI value.

CC(=O)N1CCn2c1nc1cc(Cl)ccc12 ... > 100 µM
CC1(C)CC(=O)C2=C(C1)OC1=C(CC(C)(C)CC1=O)C2c1ccccc1[N+](=O)[O-] (stereo not given) ... > 100 µM
COc1cc2nc3cc([N+](=O)[O-])ccc3c(NCCNCC(C)(C)O)c2cc1OC ... 7.49 µM
CC[C@H](C)[C@H](NC(=O)CN(C)C)C(=O)N(C)[C@H](C[C@@H](OC(C)=O)c1nc(C(=O)NC23CC(C(=O)OC)(C2)C3)cs1)C(C)C ... 0.181 µM

Report TGI for "Cc1c(/C=N/N(C)C)oc2c1cc(O)c1ncccc12" please.
6.46 µM

###

# System: SR leukemia
# PROCEDURE TEXT: NCI tumour cell line growth inhibition, 48 h; in the data active = GI50 below about 0.43 µM; inactive = the rest
Respond using exactly one of the listed classes: true for active, false for inactive

Worked examples follow.
CN1CSC(=S)N(Cc2ccccc2)C1 ... false
O=C1/C=C/[C@@H](O)[C@@H]2C[C@@H](O)C[C@H]2/C=C/CCC[C@H](C(F)(F)F)O1 ... true
CN1CCN(CCCOc2cccc3nc(Nc4ccc(Cl)c(C(F)(F)F)c4)ccc23)CC1 ... false

# evaluate next
Recorded call for "CCn1c(-c2nonc2N)nc2cncc(C(=O)N3CC[C@H](N)C3)c21" ?
false

###

Reported TGI is given for each of the following compounds.
# Tested on: SK-MEL-5 melanoma
# PROCEDURE TEXT: NCI tumour cell line growth inhibition, 48 h

COc1cc(C2c3cc4c(cc3OC(N3CCNCC3)C2C)OCO4)cc(OC)c1OC (stereo not drawn) ... 4.03 µM
c1ccc2c(c1)cc1n2CC2CN=NC12 (stereo not drawn) ... > 100 µM
C[C@]12CCC3[C@@H](CC[C@@H]4c5nonc5CC[C@]34C)C1CC[C@@H]2O (stereo partly drawn) ... 41 µM
COc1cc2c(=O)[nH]c3cc([N+](=O)[O-])ccc3c2cc1[N+](=O)[O-] ... > 100 µM
O=C1c2ccccc2C(=O)c2c(OCCOCCO)cccc21 ... > 100 µM
CCOC(=O)COc1ccc2c(C)cc(=O)oc2c1 ... > 100 µM

Data request, read-out TGI, for "COc1ccc(/C=C/C(=O)c2sc(-n3nc(-c4ccccc4)cc3-c3ccccc3)nc2C)cc1"
> 100 µM

What would you report for "CCOC(=O)Oc1ccc2c(c1)c(=O)c1c(NCCN(CC)CC)ccc3nnn2c31" ?
16.1 µM

Would you kindly repeat that for Cc1ccc(S(=O)(=O)N/N=C(/c2nc3ccc([N+](=O)[O-])cc3[nH]c2=O)C(O)c2ccc(C(O)/C(=N\NS(=O)(=O)c3ccc(C)cc3)c3nc4ccc([N+](=O)[O-])cc4[nH]c3=O)cc2)cc1 (stereo not drawn) ?
> 100 µM

Quick one: "CC(C)(C)N(Cc1ccc2c(c1)OCO2)C(=O)/C=C\Sc1ccccc1"
> 100 µM

Would you mind doing CN(Cc1cnc2nc(N)nc(N)c2n1)c1ccc(C(=O)NC(CCC(=O)O)C(=O)O)cc1Br (stereo not drawn) as well?
4.51 µM

Do the same for "COc1cc(N(Cc2ccc3oc(=O)c(-c4ccccc4)nc3c2)Cc2ccc3oc(=O)c(-c4ccccc4)nc3c2)cc(OC)c1OC" please
> 10 µM

Further, for "CN(CC(=O)N(Cc1ccc(C2CCCCC2)cc1)c1ccc(C(=O)O)cc1)S(=O)(=O)c1c(F)c(F)c(F)c(F)c1F" ?
3.58 µM

And "CC[C@H](C)[C@H](NC(=O)CN(C)C)C(=O)N(C)[C@H](C[C@@H](OC(C)=O)c1nc(C(=O)NC23CC(C(=O)OC)(C2)C3)cs1)C(C)C" ?
4 µM

Subsequent entry: COc1ccc(/C=C/C2=NN(c3cccc(S(=O)(=O)O)c3)C3(C2)SCC(=O)N3c2nc3ccccc3s2)cc1 (stereo not drawn)
> 100 µM

Check "Cn1c(N/N=C/c2ccccc2)nc(-c2ccc([N+](=O)[O-])cc2)c(C#N)c1=O" too.
> 100 µM

Let us now turn to "CCn1c(SCC(=O)NNC(=S)NC)nc2ccccc2c1=O"
> 100 µM

Okay, and "CC[n+]1c(/C=C/C=C2\N(C)c3ccccc3C2(C)C)sc2ccccc21" ?
7.33 µM

Next entry: "O=c1[nH]cnc2c1nnn2CCCCCCCCCCCCn1nnc2c(=O)[nH]cnc21"
> 100 µM

"Clc1ccc(OCc2nn3c(CCc4nnc5sc(COc6ccc(Cl)cc6)nn45)nnc3s2)cc1" , same question.
23.7 µM

Request: "Cc1ccccc1NC(=O)Cc1csc2[n+]1C(=O)/C(=C/c1ccc([N+](=O)[O-])cc1)S2"
> 100 µM

Try this compound next: COc1cc(C2c3cc4c(cc3OC(NCCO)C2C)OCO4)cc(OC)c1OC (stereo not drawn)
13.4 µM

Try this compound next: "COc1cccc(/C=N/[N-]C(N)=O)c1[O-].[Cu+2].[OH3+].c1ccc(-c2ccccn2)nc1"
31.6 µM

And "O=S(=O)(c1cnccc1N1CCN(CCO)CC1)N1CCCC1" ?
> 100 µM

Ok, now "Brc1ccc2ns[s+]c2c1"
> 46.7 µM

###

# Test system: EKVX NSCLC
# PROCEDURE TEXT: NCI tumour cell line growth inhibition, 48 h
ENDPOINT LABEL: TGI

CN1c2ccccc2N(C(=O)c2ccccc2)C(CC(=O)O)c2cccn21 (configuration not stated) ... > 100 µM
CC1=C(C(=O)Nc2ccc(Cl)c(C(=O)OC(C)C)c2)SCCO1 ... > 95.5 µM
Cn1ncc(Cl)c1-c1cc(C(=O)N[C@H](CN)Cc2ccc(F)c(F)c2)oc1Cl ... > 10 µM

Find the recorded TGI belonging to CCOC(=O)C1=C(C)N(c2ccc(OC)cc2)C2(O)C=CC(=O)C3=C(O)c4ccccc4C(=O)C312 (configuration not stated) and report it.
23.4 µM

What do you have for CC(=O)C1=C(O)C2C3c4c[nH]c5cccc(c45)CC3C(C)(C)N2C1=O (configuration not stated) ?
> 100 µM

And then c1ccc2c3c([nH]c2c1)C(c1ccc(C2NCCc4c2[nH]c2ccccc42)cc1)NCC3 (configuration not stated) , what is it?
3.39 µM

What do you have for "COc1cc2c(=O)[nH]c3cc([N+](=O)[O-])ccc3c2cc1[N+](=O)[O-]" ?
> 100 µM

Query O=C(Nc1nc2c(ncn2C2OC(CO)C(O)C2O)c(=O)[nH]1)c1ccccc1 (configuration not stated) next
> 100 µM

What do you get for "C[C@H]1S[C@H](c2c(Cl)cccc2Cl)N2Cc3ccccc3N=C12" ?
23.4 µM

Another molecule: Cc1cc(=O)[nH]c(NN2C(Cl)C(=O)C2c2cccc(Cl)c2)n1 (configuration not stated)
> 100 µM

Another: c1ccc2c(c1)cc1n2CC2CN=NC12 (configuration not stated)
> 100 µM

Do the same for Cc1ccc(S(=O)(=O)NC(CN)C(=O)O)cc1 (configuration not stated) please
> 100 µM

###

# Test system: U251 CNS
# valid calls are yes (1) = active, no (0) = inactive; nothing else

CCN1CCN(C(=O)[C@]23CCC(C)(C)C[C@@H]2C2=CC[C@@H]4[C@@]5(C)C/C(=C/c6ccncc6)C(=O)C(C)(C)[C@@H]5CC[C@@]4(C)[C@]2(C)CC3)CC1 ... no (0)

Please share the test call associated with "CCCCCCC[CH2][Sn]1([CH2]CCCCCCC)[O]C(=O)c2cccnc2[O]1" .
no (0)

Follow-up item: "COc1cc2cc(Oc3ccc(NC(=O)Nc4ccc(Cl)c(Cl)c4)cc3)c(C)nc2cc1OC"
no (0)

Subsequent entry: "O=C1/C=C/[C@@H](O)[C@@H]2C[C@@H](O)C[C@H]2/C=C/CCC[C@H](C(F)(F)F)O1"
no (0)

Same question, "c1cc2c(cn1)Nc1ccncc1S2" this time
no (0)

What do we get for "Cn1c(-c2c(N)n(CCCN3CCOCC3)c3nc(C#N)c(C#N)nc23)nc2ccccc21" ?
no (0)

Continue with "CO[C@H]1C[C@@H]2CC[C@@H](C)[C@@](O)(O2)C(=O)C(=O)N2CCCC[C@H]2C(=O)O[C@H]([C@H](C)C[C@@H]2CC[C@@H](OCCO)[C@H](OC)C2)CC(=O)[C@H](C)C=C(C)[C@@H](O)[C@@H](OC)C(=O)[C@H](C)C[C@H](C)/C=C/C=C/C=C1C"
yes (1)

Try the compound "O=C(CC(Cl)=C(Cl)Cl)c1cccc(Cl)c1Cl"
no (0)

Next: "CC(=O)[O][Hg][c]1c(C)c(C)cc(C)c1C"
no (0)
